Recorded log10(CC50) by entry
# assay.explanation: Cytotoxicity against Vero E6 cells by MTT assay
# Type: cell-based
# assay.conditions: chlorocebus sabaeus
Use the decimal logarithm of CC50 (µM).

# example entries with known answers
{"columns": ["compound", "numeric.readout"],
 "data": [
  ["CC(C)c1ccc2c(c1)C(=O)C[C@H]1C(C)(C)CCC[C@]21C", 2.48],
  ["CC(C)C1=C(O)C(=O)C2=C(C=C[C@H]3C(C)(C)CCC[C@]23C)C1=O", 1.95],
  ["CC(C)[C@@H]1NC(=O)[C@H](C)OC(=O)[C@@H](C(C)C)NC(=O)[C@@H](C(C)C)OC(=O)[C@H](C(C)C)NC(=O)[C@H](C)OC(=O)[C@@H](C(C)C)NC(=O)[C@@H](C(C)C)OC(=O)[C@H](C(C)C)NC(=O)[C@H](C)OC(=O)[C@@H](C(C)C)NC(=O)[C@@H](C(C)C)OC1=O", 1.83]
]}

Query: log10(CC50) for O=C(Nc1ccc([N+](=O)[O-])cc1Cl)c1cc(Cl)ccc1O [NICLOSAMIDE] ?
Response: 1.34

Query: Entry "COc1c(C(C)C)cc2c(c1O)[C@@]1(C)CCCC(C)(C)[C@@H]1CC2=O" : reported log10(CC50) = ?
Response: 1.89
